- Test system: HCT116
- assay.protocol: cell viability (CellTiter-Glo) relative to plate median (fraction of plate median); higher = more viable cells
- reported.conditions: 5 µM; treatment time 24 h; reporter: TCF4/Wnt
value.kind: cell viability
Give your answer as a number; write no unit.

Which cell viability is reported for this molecule? CN1[C@@H]2CC[C@H]1C[C@@H](OC(=O)C(CO)c1ccccc1)C2 (some centres undefined)
1.01

Which cell viability is reported for this molecule? CC1C[C@H]2CC(=O)[C@H]3CCCN4CCC[C@H]2[C@]34C1.[O-][Cl+3]([O-])([O-])O (some centres undefined)
1.01

Which cell viability is reported for this molecule? CNC1CC(N)C(O)C(OC2OC(CO)C(O)C3OC4(OC(C(N)CO)C(O)C(O)C4O)OC23)C1O (centres undefined)
0.98

Which cell viability is reported for this molecule? `CC(C)C[C@H]1C(=O)N2CCC[C@H]2[C@]2(O)O[C@](NC(=O)[C@@H]3C=C4c5cccc6[nH]c(Br)c(c56)C[C@H]4N(C)C3)(C(C)C)C(=O)N12`
0.974

Which cell viability is reported for this molecule? `CC(=O)O[C@H]1CC[C@@]2(C)C(=CC[C@@H]3[C@@H]2CC[C@]2(C)C(=O)CC[C@@H]32)C1`
1.03

Which cell viability is reported for this molecule? `CC(C)(C)[C@]1(O)C[C@@H]2OC(=O)C[C@@]23C(=O)O[C@@H]2OC(=O)[C@H](O)[C@]213`
1.03

Which cell viability is reported for this molecule? `C[C@H](N)[C@H](O)c1ccc(O)c(O)c1`
1.05

Which cell viability is reported for this molecule? CC(=O)C1CCC2C3CCC4C[C@H](O)CCC4(C)C3C[C@H](O)C12C (stereo partly drawn) [DIHYDROXY (3alpha,12alpha)PREGNAN-20-ONE]
1.12

Which cell viability is reported for this molecule? `C1CCc2nnnn2CC1`
1.05

Which cell viability is reported for this molecule? `COP(=S)(OC)Oc1ccc(Sc2ccc(OP(=S)(OC)OC)cc2)cc1`
1.06

Which cell viability is reported for this molecule? CC(=O)Oc1c2c(c(CC=C(C)C)c3c1C(=O)C1=C[C@@H]4CC5C(C)(C)OC(C/C=C(\C)C(=O)O)(C4=O)[C@@]15O3)OC(C)(CCC=C(C)C)C=C2 (some centres undefined)
0.933

Which cell viability is reported for this molecule? CNC(Cc1c[nH]c2ccccc12)C(=O)O (centres undefined)
0.975

Which cell viability is reported for this molecule? `C/C=C(/C)C(=O)O[C@H]1CC[C@@]2(C)[C@@H]3CC[C@H]4[C@]5(O)C[C@H](O)[C@@]6(O)[C@@H](CN7C[C@@H](C)CC[C@H]7[C@@]6(C)O)[C@]5(O)C[C@@]42O[C@]13O`
0.995

Which cell viability is reported for this molecule? `Cc1nccc2c1[nH]c1cc(O)ccc12`
0.978

Which cell viability is reported for this molecule? `Oc1cccc2cccnc12`
0.967

Which cell viability is reported for this molecule? `NCC1(CC(=O)O)CCCCC1`
1.08

Which cell viability is reported for this molecule? `O=c1c(O)c(-c2ccc(O)c(O)c2)oc2c(O)c(O)cc(O)c12`
1.1

Which cell viability is reported for this molecule? `Cc1ncc(CNC(=O)N(CCCl)N=O)c(N)n1`
0.98

Which cell viability is reported for this molecule? `COc1cc2c(c3oc4cccc(O)c4c(=O)c13)[C@@H]1C=CO[C@@H]1O2`
1.17
